Data provenance: ChEMBL document CHEMBL3763058

Provide the reported Activity of each item.
- Test system: Human immunodeficiency virus 1
- experimental protocol: Binding affinity to HIV1 5'-[32P]HIV96 RNA assessed as viral RNA cleavage at 1 mM measured after 3 and 7 hrs relative to control
The response must be a number in % with no trailing unit.

Exam item: What does the record list as Activity for N[C@@H](CCC(=O)O)C(=O)NCCCCCCCCCCCCNC(=O)[C@@H](N)CCC(=O)O ?
Marked response: 60

Exam item: What do you have for NCCCC[C@H](N)C(=O)NCCCCCCCCCCCCNC(=O)[C@@H](N)CCCCN ?
Marked response: 24

Exam item: What do you have for NCCCC[C@H](NC(=O)CCc1c[nH]cn1)C(=O)NCCCOCCCCOCCCNC(=O)[C@H](CCCCN)NC(=O)CCc1c[nH]cn1 ?
Marked response: 44

Exam item: What do you have for N[C@@H](CCC(=O)O)C(=O)NCCCCCC(=O)N[C@@H](CO)C(=O)NCCCOCCCCOCCCNC(=O)[C@H](CO)NC(=O)CCCCCNC(=O)[C@@H](N)CCC(=O)O ?
Marked response: 23

Exam item: What do you have for NCCCC[C@H](NCCCCCNC(=O)[C@@H](N)CCC(=O)O)C(=O)NCCCCCCCCCCCCNC(=O)[C@H](CCCCN)NC(=O)CCCCCNC(=O)[C@@H](N)CCC(=O)O ?
Marked response: 55

Exam item: What do you have for NCCCC[C@H](N)C(=O)NCCCCCC(=O)N[C@@H](CO)C(=O)NCCCOCCCCOCCCNC(=O)[C@H](CO)NC(=O)CCCCCNC(=O)[C@@H](N)CCCCN ?
Marked response: 10

Exam item: What do you have for NCCCC[C@H](NC(=O)CCCCCNC(=O)[C@@H](N)CCC(=O)O)C(=O)NCCCOCCCCOCCCNC(=O)[C@H](CCCCN)NC(=O)CCCCCNC(=O)[C@@H](N)CCC(=O)O ?
Marked response: 57

---

- Tested on: Human immunodeficiency virus 1
- experimental protocol: Binding affinity to HIV1 5'-[32P]HIV96 RNA assessed as viral RNA cleavage rate constant at 1 mM
test readout: K (h⁻¹)
The response must be a number in h⁻¹ with no trailing unit.

Exam item: What does the record list as K for N=C(N)NCCC[C@H](N)C(=O)NCCCOCCCCOCCCNC(=O)[C@@H](N)CCCNC(=N)N ?
Marked response: 0.062

Exam item: What do you have for NCCCC[C@H](N)C(=O)NCCCCCCCCCCCCNC(=O)[C@@H](N)CCCCN ?
Marked response: 0.07

Exam item: What do you have for NCCCC[C@H](NCCCCCNC(=O)[C@@H](N)CCC(=O)O)C(=O)NCCCCCCCCCCCCNC(=O)[C@H](CCCCN)NC(=O)CCCCCNC(=O)[C@@H](N)CCC(=O)O ?
Marked response: 0.254

Exam item: What do you have for N[C@@H](CO)C(=O)NCCCCCCCCCCCCNC(=O)[C@@H](N)CO ?
Marked response: 0.079

Exam item: What do you have for NCCCC[C@H](N)C(=O)NCCCOCCCCOCCCNC(=O)[C@@H](N)CCCCN ?
Marked response: 0.011

Exam item: What do you have for N[C@@H](CCC(=O)OCc1ccccc1)C(=O)NCCCCCCCCCCCCNC(=O)[C@@H](N)CCC(=O)OCc1ccccc1 ?
Marked response: 0.053

---

Provide the reported log10 K of each item.
- Tested on: Human immunodeficiency virus 1
- experimental protocol: Binding affinity to HIV1 5'-[32P]HIV96 RNA assessed as viral RNA cleavage rate constant at 1 mM
// stored as log10 of K expressed in h⁻¹

Exam item: What does the record list as log10 K for N[C@@H](CCC(=O)O)C(=O)NCCCCCCCCCCCCNC(=O)[C@@H](N)CCC(=O)O ?
Marked response: -0.56

Exam item: What do you have for N[C@@H](CCC(=O)O)C(=O)NCCCCCC(=O)N[C@@H](CO)C(=O)NCCCOCCCCOCCCNC(=O)[C@H](CO)NC(=O)CCCCCNC(=O)[C@@H](N)CCC(=O)O ?
Marked response: -1.48

Exam item: What do you have for O=C(/C=C/c1c[nH]cn1)N[C@@H](CCCCNC(=O)OCc1ccccc1Cl)C(=O)NCCCOCCCCOCCCNC(=O)[C@H](CCCCNC(=O)OCc1ccccc1Cl)NC(=O)/C=C/c1c[nH]cn1 ?
Marked response: -0.96

Exam item: What do you have for NCCCC[C@H](NC(=O)CCc1c[nH]cn1)C(=O)NCCCOCCCCOCCCNC(=O)[C@H](CCCCN)NC(=O)CCc1c[nH]cn1 ?
Marked response: -1.12

Exam item: What do you have for NCCCC[C@H](NC(=O)CCCCCNC(=O)[C@@H](N)CCC(=O)O)C(=O)NCCCOCCCCOCCCNC(=O)[C@H](CCCCN)NC(=O)CCCCCNC(=O)[C@@H](N)CCC(=O)O ?
Marked response: -1.09

Exam item: What do you have for N[C@@H](CO)C(=O)NCCCOCCCCOCCCNC(=O)[C@@H](N)CO ?
Marked response: -2.70

Exam item: What do you have for NCCCC[C@H](N)C(=O)NCCCCCC(=O)N[C@@H](CO)C(=O)NCCCOCCCCOCCCNC(=O)[C@H](CO)NC(=O)CCCCCNC(=O)[C@@H](N)CCCCN ?
Marked response: -2.30

---

- Test system: Human immunodeficiency virus 1
- experimental protocol: Binding affinity to HIV1 5'-[32P]HIV96 RNA assessed as viral RNA cleavage at 1 mM measured after 3 and 7 hrs relative to control
Provide the reported Activity of each item.
The response must be a number in % with no trailing unit.

Exam item: What does the record list as Activity for N[C@@H](CCC(=O)OCc1ccccc1)C(=O)NCCCCCCCCCCCCNC(=O)[C@@H](N)CCC(=O)OCc1ccccc1 ?
Marked response: 18

Exam item: What do you have for N[C@@H](CO)C(=O)NCCCCCCCCCCCCNC(=O)[C@@H](N)CO ?
Marked response: 28

Exam item: What do you have for N=C(N)NCCC[C@H](N)C(=O)NCCCOCCCCOCCCNC(=O)[C@@H](N)CCCNC(=N)N ?
Marked response: 38

Exam item: What do you have for NCCCC[C@H](N)C(=O)NCCCOCCCCOCCCNC(=O)[C@@H](N)CCCCN ?
Marked response: 19

Exam item: What do you have for N[C@@H](CO)C(=O)NCCCOCCCCOCCCNC(=O)[C@@H](N)CO ?
Marked response: 6

Exam item: What do you have for O=C(/C=C/c1c[nH]cn1)N[C@@H](CCCCNC(=O)OCc1ccccc1Cl)C(=O)NCCCOCCCCOCCCNC(=O)[C@H](CCCCNC(=O)OCc1ccccc1Cl)NC(=O)/C=C/c1c[nH]cn1 ?
Marked response: 52

---

Provide the reported Activity of each item.
- Test system: Human immunodeficiency virus 1
- experimental protocol: Binding affinity to HIV1 5'-[32P]ON21 RNA assessed as viral RNA cleavage at 1 mM measured after 3 and 7 hrs relative to control
The response must be a number in % with no trailing unit.

Exam item: Record lookup: for Human immunodeficiency virus 1, what Activity belongs to NCCCC[C@H](N)C(=O)NCCCCCC(=O)N[C@@H](CO)C(=O)NCCCOCCCCOCCCNC(=O)[C@H](CO)NC(=O)CCCCCNC(=O)[C@@H](N)CCCCN ?
Marked response: 11

Exam item: What do you have for N=C(N)NCCC[C@H](N)C(=O)NCCCOCCCCOCCCNC(=O)[C@@H](N)CCCNC(=N)N ?
Marked response: 25

Exam item: What do you have for NCCCC[C@H](NC(=O)CCc1c[nH]cn1)C(=O)NCCCOCCCCOCCCNC(=O)[C@H](CCCCN)NC(=O)CCc1c[nH]cn1 ?
Marked response: 29

Exam item: What do you have for N[C@@H](CCC(=O)O)C(=O)NCCCCCC(=O)N[C@@H](CO)C(=O)NCCCOCCCCOCCCNC(=O)[C@H](CO)NC(=O)CCCCCNC(=O)[C@@H](N)CCC(=O)O ?
Marked response: 18

Exam item: What do you have for O=C(/C=C/c1c[nH]cn1)N[C@@H](CCCCNC(=O)OCc1ccccc1Cl)C(=O)NCCCOCCCCOCCCNC(=O)[C@H](CCCCNC(=O)OCc1ccccc1Cl)NC(=O)/C=C/c1c[nH]cn1 ?
Marked response: 42
